- Tested on: RSK1(Kin.Dom.2-C-terminal)
- Construct: gene RPS6KA1
- Experimental Context: concentration: 1 μM, replicates: in singlicate; n = 1
Hi! Could you tag entries with %Inh below 2% as Met, and those at or above as Not met? Much appreciated.

Record Smiles | Label
CCc1nc(-c2cccc(C)c2)c(-c2ccncc2)s1 | Not met
CCC(=O)c1c(-c2ccccc2)c2cc(Cl)ccc2c(=O)n1Cc1cc(C(=O)NC2CC2)n(C)n1 | Not met
COC(=O)c1c(-c2ccccc2)c2cc(Br)ccc2c(=O)n1Cc1ccc(NC(=O)CCC(=O)O)cc1 | Not met
Cl.c1ccc(Cn2cnc3cc(Nc4ncnc5ccccc45)ccc32)cc1 | Met
COc1cc(OC)cc(-c2cc3cnc(N)nc3nc2NC(=O)NC(C)(C)C)c1 | Met
CCC(=O)c1c(-c2ccccc2)c2cc(Cl)ccc2c(=O)n1Cc1cc(S(C)(=O)=O)n(CCC(C)(C)O)n1 | Met
O=C(NCCNc1ccnc(Nc2ccc(F)cc2)n1)Nc1ccc2c(c1)OCO2 | Not met

Pending compound:
Is it true that %Inh reported for Nc1n[nH]c2nnc(-c3ccccc3)c(-c3ccccc3)c12 is less than 2%?
Met

###

- Tested on: MST1R
- Experimental Context: concentration: 1 μM, replicates: in singlicate; n = 1
Could you please report measured %Inh for the items listed next?
Answers are plain numbers, in %.

Molecule | %Inh / %
COc1ccc(CNC(=O)NC2CCN(c3ccnc(Nc4ccc(F)cc4)n3)C2)cc1 (stereo not drawn) | 41
Cl.NS(=O)(=O)c1cccc(Nc2cc(-c3ccc(F)cc3)n[nH]2)c1 | 0
COc1cc(Nc2nccc(N3CCC(NC(=O)C4COc5ccccc5O4)C3)n2)cc(OC)c1OC (stereo not drawn) | 8
COc1cc(OC)cc(-c2cc3cnc(N)nc3nc2NC(=O)NC(C)(C)C)c1 | 0

// each molecule listed below needs its %Inh
1. O=C(NCc1cccs1)c1cc(C(=O)c2c(Cl)cccc2Cl)c[nH]1
2. COC(=O)c1c(-c2ccccc2)c2cc(C)ccc2c(=O)n1Cc1ccccc1
3. Nc1nc(-c2ccccc2F)c(-c2ccnc3ccccc23)s1
4. CCC(=O)c1c(-c2ccccc2)c2cc(Cl)ccc2c(=O)n1Cc1cc(S(C)(=O)=O)n(CCC(C)(C)O)n1
5. COc1cccc(C2=C(N(C)c3ccccc3)C(=O)NC2=O)c1
6. CCS(=O)(=O)c1ccc(OC)c(Nc2ncc(-c3ccc(F)cc3)o2)c1.Cl
7. CCC(=O)c1c(-c2ccccc2)c2cc(Cl)ccc2c(=O)n1Cc1cc(C(=O)NC2CC2)n(C)n1

1: 0; 2: 31; 3: 33; 4: 36; 5: 10; 6: 33; 7: 37

###

- System: DCAMKL3
- Construct: gene DCLK3
- Experimental Context: concentration: 1 μM, replicates: in singlicate; n = 1
For each of the molecules below, state its %Inh.

Worked cases, answers included:
Molecule | %Inh
CCCC(=O)Nc1n[nH]c2ncc(-c3cccc4ccccc34)cc12 [SB-642057] | 11%
COC(=O)c1c(-c2ccccc2)c2cc(C)ccc2c(=O)n1Cc1ccccc1 | 0%

Now turn to the next molecule.
Which %Inh value belongs to Nc1nccc2scc(-c3ccc4c(c3)CCN4C(=O)Cc3ccccc3)c12 [GSK2576924] ?
27%

###

- Test system: LZK
- Construct: gene MAP3K13
- Experimental Context: concentration: 1 μM, replicates: in singlicate; n = 1
Measurement Kind: %Inh (%)
Give bare numbers, in %.

Use the examples below as a reference point.
Record Smiles | Output Unit | %Inh
Fc1cccc(CSc2nnc(-c3ccc4c(c3)CCO4)o2)c1 | % | 0
COc1cccc(-n2cnc3c(N)ncnc32)c1 | % | 33
COc1cc2ncn(-c3cc(OCCCc4ccccc4)c(C(N)=O)s3)c2cc1OC | % | 0

// switching to the query compound
Dear colleague, I am looking for the recorded %Inh of the following compound: CCC(=O)c1c(-c2ccccc2)c2cc(Cl)ccc2c(=O)n1Cc1cc(C(=O)NC2CC2)n(C)n1
31

###

- Tested on: MEK1;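 note: kd values determined as follow-up on hits from a single-replicate KINOMEscan panel screen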
- Construct: gene MAP2K1
Measurement Kind: pKd
One number for each entry, as −log10 of the molar value.

Query the reported pKd for MEK1; item: Cn1c(=O)c(F)c(Nc2ccc(I)cc2F)c2c(=O)n(OC[C@H](O)CO)cnc21
7.47

###

Assign %Inh to each entry below.
- System: RPS6KA5(Kin.Dom.2-C-terminal)
- Experimental Context: concentration: 1 μM, replicates: in singlicate; n = 1
Numbers only, in %.

Compound | Measurement Kind | Value Measured
COc1cc2nccc(Nc3cccc(Oc4ccccc4)c3)c2cc1OC.Cl [GW284543] | %Inh | 0
Nc1n[nH]c2nnc(-c3ccccc3)c(-c3ccccc3)c12 [GW554060] | %Inh | 0
O=C1NC(=O)C(c2ccccc2)=C1Nc1cccc(O)c1 [SB-390534] | %Inh | 0
CCn1c(-c2nonc2N)nc2ccccc21 [SB-693162/GW549034] | %Inh | 0
CCc1ccc(-c2ccc3c(c2)-c2nn(C)cc2S(=O)(=O)N3C)cc1 | %Inh | 0
COc1cc2ncn(-c3cc(OCc4ccc(S(C)(=O)=O)cc4)c(C(N)=O)s3)c2cc1OC [GW869979] | %Inh | 14

Please supply %Inh for each of the following items, keeping them in order.
1. Cl.NS(=O)(=O)c1cccc(Nc2cc(-c3ccc(F)cc3)n[nH]2)c1 [GW824645]
2. COc1cc(Nc2ccnc3ccc(C(F)(F)F)cc23)cc(OC)c1OC [GW577382]
3. CCC(=O)c1c(-c2ccccc2)c2cc(Cl)ccc2c(=O)n1Cc1ccc(C(=O)O)cc1
4. CCC(=O)c1c(-c2ccccc2)c2cc(Cl)ccc2c(=O)n1Cc1cc(S(C)(=O)=O)n(CC(N)=O)n1
5. CN1C(=O)C(Nc2cc(Cl)c(O)c(Cl)c2)=C(c2ccc(Cl)cc2)C1=O [SB-404321]
6. COc1cc2ncn(-c3cc(OCc4ccncc4Br)c(C(N)=O)s3)c2cc1OC [GW854278]
7. COc1cc2nccc(Nc3ccc(OCc4ccc(NC(C)=O)cc4)cc3)c2cc1OC.Cl [GW440135]

1: 3; 2: 13; 3: 0; 4: 22; 5: 0; 6: 7; 7: 12

List reported %Inh for each of these compounds:
1. Cc1ccccc1COc1cc(-n2cnc3cc(Cl)ccc32)sc1C(N)=O [GW813349]
2. O=C(NCc1cccs1)c1cc(C(=O)c2c(Cl)cccc2Cl)c[nH]1 [GW823670]
3. CCS(=O)c1ccc(-c2coc3ccc(-c4nnc(C)o4)cc23)cc1 (stereo not drawn)
4. O=C(Nc1n[nH]c2nc(-c3ccccc3)c(Cl)cc12)C1CC1 [SB-734909]
5. CCC(=O)c1c(-c2ccccc2)c2cc(Cl)ccc2c(=O)n1Cc1cc(S(C)(=O)=O)n(CC(F)F)n1

1: 5; 2: 15; 3: 0; 4: 0; 5: 0

###

I'd be grateful if you could share measured %Inh for these entries.
- Test system: NEK7
- Experimental Context: concentration: 1 μM, replicates: in singlicate; n = 1

Record Smiles | %Inh
COc1cccc(C2=C(N(C)c3ccccc3)C(=O)NC2=O)c1 | 0%

Here are 4 molecules. What values of %Inh were reported for them?
1. CCC(=O)c1c(-c2ccccc2)c2cc(Cl)ccc2c(=O)n1Cc1cc(S(C)(=O)=O)n(CC(N)=O)n1
2. Nc1ncnc2c1ncn2-c1ccc(Cl)cc1
3. Cc1ccc(Oc2ccc(Nc3ncnc4cc[nH]c34)cc2C)cn1
4. O=C(NCc1cccs1)c1cc(C(=O)c2c(Cl)cccc2Cl)c[nH]1

0%
0%
10%
0%

For each listed entry, give its %Inh.
1. Nc1n[nH]c2ncc(-c3ccccc3)cc12
2. Cc1nn2c(=O)cc(N3CCOCC3)nc2n1Cc1cccc(Cl)c1Cl

1: 0%; 2: 0%

Fill in %Inh for each of the 2 molecules listed.
1. FC(F)(F)c1ccc(-c2ncn(CCCN3CCOCC3)c2-c2ccncc2)cc1
2. O=C1NC(=O)C(c2ccccc2)=C1Nc1cccc(O)c1

1: 10%; 2: 14%

###

- System: BUB1
- Experimental Context: concentration: 1 μM, replicates: in singlicate; n = 1
Measurement Kind: %Inh
Remember to quote the unit after the number.

Give one value of %Inh per listed molecule.
1. COc1cc2ncn(-c3cc(OCCCc4ccccc4)c(C(N)=O)s3)c2cc1OC
2. CCS(=O)(=O)c1ccc(OC)c(Nc2ncc(-c3ccc(F)cc3)o2)c1.Cl
3. O=C(Nc1n[nH]c2nc(-c3ccccc3)c(Cl)cc12)C1CC1
4. FC(F)(F)c1ccc(-c2ncn(CCCN3CCOCC3)c2-c2ccncc2)cc1
5. COC(=O)c1c(-c2ccccc2)c2cc(C)ccc2c(=O)n1Cc1ccccc1
6. O=C1NC(=O)C(c2ccccc2)=C1Nc1cccc(O)c1

20%
8%
0%
0%
0%
0%

Batch lookup, %Inh per entry.
1. CCC(=O)c1c(-c2ccccc2)c2cc(Cl)ccc2c(=O)n1Cc1cc(S(C)(=O)=O)n(CC(N)=O)n1
2. Nc1nccc2scc(-c3ccc4c(c3)CCN4C(=O)Cc3ccccc3)c12
3. COc1cc2ncn(-c3cc(OCc4ccc(S(C)(=O)=O)cc4)c(C(N)=O)s3)c2cc1OC

1: 0%; 2: 0%; 3: 28%

Values from paper PMC5540273
